Field: reduction of PEPCK-c mRNA expression. Provide a value for each of the substances that follow.
System: PEPCK-c
measurement_protocol: PEPCK-c mRNA expression in HepG2 cells
Format: cell-based, human
experimental_conditions: HepG2, 1 nM insulin, 100 nM
In the oligonucleotide strings, read from the 5' end, every base follows the letter of its sugar. An asterisk marks phosphorothioate; unmarked linkages are phosphodiester. Other units and linkages are bracketed, terminal groups are in braces. A string of capitals states the bases alone. e = 2'-O-(2-methoxyethyl) (MOE); [5mC] = 5-methylcytosine; d = 2'-deoxy (DNA)
Give bare numbers, in %.

Some solved entries appear below for comparison.
>>> assay_value("CTAGTGGTCCTAAACATTTCAC (chemistry not given here) [ISIS 327878, uniform 2′-MOE PS; targets mir-203]")
71
>>> assay_value("GAGACCCAGTAGCCAGATGTAGCT (chemistry not given here) [ISIS 327920, uniform 2′-MOE PS; targets mir-222]")
41
>>> assay_value("AGAAGGTGGGGAGCAGCGTCA (anti-miR; chemistry not fully specified) [ISIS 328115, uniform 2′-MOE PS; targets hypothetical miRNA-142]")
41
>>> assay_value("ISIS 328761: oligomeric compound targeting hypothetical mir-138 (antisense eG*e[5mC]*eA*eG*eG*d[5mC]*dT*dA*dA*dA*dA*dG*dA*dA*dA*eT*eA*eA*eG*e[5mC])")
45
>>> assay_value("ISIS 328342: SEQ ID NO: 451, targeting mir-203 (e[5mC]*eA*eA*eT*eT*dG*d[5mC]*dG*d[5mC]*dT*dA*d[5mC]*dA*dG*dA*eA*e[5mC]*eT*eG*eT)")
61

Would you mind listing reduction of PEPCK-c mRNA expression for each of the following substances?
1. ISIS 328765: oligomeric compound targeting mir-215 (antisense eG*eA*e[5mC]*eA*eA*dA*d[5mC]*dT*d[5mC]*dA*dG*d[5mC]*dT*dA*dT*eA*eT*eT*eG*eT)
2. AATCTCATTTTCATACTTGCA (anti-miR; chemistry not fully specified) [ISIS 328114, uniform 2′-MOE PS; targets hypothetical miRNA-138]
3. TCAGTTTTGCATGGATTTGCACA (anti-miR; chemistry not fully specified) [ISIS 327922, uniform 2′-MOE PS; targets mir-19b-2]

[27, 59, 24]
